Target Entity: Cholinesterase (Homo sapiens)
Sequence (P06276 whole entry): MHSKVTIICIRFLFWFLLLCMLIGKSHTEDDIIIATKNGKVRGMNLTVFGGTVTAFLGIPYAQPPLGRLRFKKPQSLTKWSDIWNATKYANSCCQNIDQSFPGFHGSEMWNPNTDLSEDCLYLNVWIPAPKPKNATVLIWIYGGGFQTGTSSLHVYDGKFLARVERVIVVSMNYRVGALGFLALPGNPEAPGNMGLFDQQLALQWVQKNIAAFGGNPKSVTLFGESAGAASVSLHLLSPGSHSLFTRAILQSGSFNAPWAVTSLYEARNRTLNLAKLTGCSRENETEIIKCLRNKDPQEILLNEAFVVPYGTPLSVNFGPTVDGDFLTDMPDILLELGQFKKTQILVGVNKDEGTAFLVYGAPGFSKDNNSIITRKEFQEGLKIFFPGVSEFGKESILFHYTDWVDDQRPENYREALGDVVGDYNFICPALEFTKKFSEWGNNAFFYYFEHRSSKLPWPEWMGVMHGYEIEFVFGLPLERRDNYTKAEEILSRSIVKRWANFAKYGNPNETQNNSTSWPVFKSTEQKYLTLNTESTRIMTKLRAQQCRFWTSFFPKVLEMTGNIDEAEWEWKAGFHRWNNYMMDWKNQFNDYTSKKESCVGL
Assay Protocol: Inhibition of human plasma BChE assessed as half life for enzyme-inhibitor […] at IC>85 using butyrylthiocholine iodide as substrate incubated for 1 hr prior to compound dilution further incubated for 1 to 40 mins and subsequent substrate addition and measured after 2.5 mins by DTNB reagent based UV-spectrometric method
# note: exactly 6 h is not below, so it is NO; use YES for T1/2 strictly under it

Record excerpt, results attached:
In: In plain terms, does CN1c2ccc(OC(=O)NCCCCCCCCN3CCc4ccccc4C3)cc2CN2CCc3ccccc3C21 (stereo unspecified) come in under 6 h for T1/2?
Out: YES

In: Same for CN1c2ccc(OC(=O)NCCCCCCn3ccnc3)cc2CN2CCc3ccccc3C21 (stereo unspecified)
Out: YES

In: Here is the next compound: CN1c2ccc(OC(=O)NCCCCCCN3CCNCC3)cc2CN2CCc3ccccc3C21 (stereo unspecified)
Out: YES

In: Same read-out for CN1c2ccc(OC(=O)NCCCCCCN3CCc4ccccc4C3)cc2CN2CCc3ccccc3C21 (stereo unspecified) ?
Out: NO

In: Let us now turn to CN1c2ccc(OC(=O)NCCCCCCn3cnc4ccccc43)cc2CN2CCc3ccccc3C21 (stereo unspecified)
Out: YES

Next:
In: Is it true that T1/2 reported for CN1c2ccc(OC(=O)NCCCCN3CCOCC3)cc2CN2CCc3ccccc3C21 (stereo unspecified) is less than 6 h?
Out: YES

In: CN1c2ccc(OC(=O)NCCCCN3CCc4ccccc4C3)cc2CN2CCc3ccccc3C21 (stereo unspecified) ?
Out: NO

In: Further, for CN1c2ccc(OC(=O)NCCCCCCN3CCOCC3)cc2CN2CCc3ccccc3C21 (stereo unspecified) ?
Out: NO

In: And the next one, CN1c2ccc(OC(=O)NCCCCCCN3CCCCC3)cc2CN2CCc3ccccc3C21 (stereo unspecified) ?
Out: YES

In: Then this compound: CN1c2ccc(OC(=O)NCCCCCCCCN3CCOCC3)cc2CN2CCc3ccccc3C21 (stereo unspecified)
Out: YES

In: Same question for CN1c2ccc(OC(=O)NCCCCCCN3CCCC3)cc2CN2CCc3ccccc3C21 (stereo unspecified) please.
Out: YES

---

Target Entity: Acetylcholinesterase (Mus musculus, UniProt P21836)
Sequence (P21836 whole entry): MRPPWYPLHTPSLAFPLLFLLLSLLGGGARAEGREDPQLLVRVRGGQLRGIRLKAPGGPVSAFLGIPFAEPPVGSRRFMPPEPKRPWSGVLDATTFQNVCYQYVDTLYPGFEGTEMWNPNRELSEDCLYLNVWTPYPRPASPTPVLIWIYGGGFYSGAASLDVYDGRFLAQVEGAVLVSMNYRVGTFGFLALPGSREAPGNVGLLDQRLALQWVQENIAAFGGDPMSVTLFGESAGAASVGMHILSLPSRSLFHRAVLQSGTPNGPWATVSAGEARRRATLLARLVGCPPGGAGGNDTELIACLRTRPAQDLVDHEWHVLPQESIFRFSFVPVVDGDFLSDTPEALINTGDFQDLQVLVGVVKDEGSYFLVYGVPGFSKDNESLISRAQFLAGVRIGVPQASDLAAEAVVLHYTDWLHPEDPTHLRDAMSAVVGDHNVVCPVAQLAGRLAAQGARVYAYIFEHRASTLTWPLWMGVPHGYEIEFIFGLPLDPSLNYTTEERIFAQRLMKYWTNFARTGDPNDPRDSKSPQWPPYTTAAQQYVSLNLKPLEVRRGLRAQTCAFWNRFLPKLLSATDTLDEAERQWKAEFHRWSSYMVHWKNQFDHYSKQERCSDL
Assay Protocol: Inhibition of mouse AChE using acetylthiocholine as substrate measured after 300 secs by Ellman's method
pIC50: −log10 of the molar value.
Experimental Readout: pIC50

In: Need pIC50 of COCCN(CC1CCCN(Cc2ccccc2)C1)S(=O)(=O)c1ccc2ccccc2c1 (stereo unspecified) , thanks.
Out: < 5.00
